Biological target: hPPAR α (LBD) (Homo sapiens, UniProt Q07869)
Construct: A receptor expression plasmid (pSG5-GAL4-hPPAR α or γ or δ (LBD)); GAL4 (fusion partner); expressed in transfected cells; host or cells: CV-1 cells (ATCC)
Sequence (Q07869 239-466 limits assumed): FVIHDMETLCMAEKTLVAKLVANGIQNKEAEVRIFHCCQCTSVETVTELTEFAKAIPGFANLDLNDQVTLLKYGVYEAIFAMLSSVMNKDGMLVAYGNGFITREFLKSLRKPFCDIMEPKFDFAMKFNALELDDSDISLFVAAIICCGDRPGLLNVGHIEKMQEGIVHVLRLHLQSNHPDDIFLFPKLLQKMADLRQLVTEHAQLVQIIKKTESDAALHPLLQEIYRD
Assay: GAL4-hPPAR α (LBD) luciferase reporter transactivation in CV-1 cells
Assay type: cell-based
Settings: test compound 10^−6 M, relative to 100% of compound of Example 2 of Patent Publication 4 at 10^−6 M
Criterion: PPAR activity (%) α meeting or surpassing 80%. Met: 1 (yes). Not met: 0 (no).

- Molecule: "C=C(CCc1cc(-c2ccc(C(F)(F)F)cc2)nn1C(C)C)c1ccc(OC(C)(C)C(=O)O)c(C)c1"
  Classification: "1 (yes)"
- Molecule: "Cc1cc(C(=O)CCc2sc(-c3ccc(C(F)(F)F)cc3)cc2C)ccc1OC(C)(C)C(=O)O"
  Classification: "0 (no)"
- Molecule: "Cc1cc(C(=O)CCc2cc(-c3ccc(C(F)(F)F)cc3)nn2C(C)C)ccc1OC(C)C(=O)O (stereo not shown)"
  Classification: "0 (no)"
- Molecule: "Cc1cc(C(=O)CCc2cn(-c3ccc(C(F)(F)F)cc3)nc2C(C)C)ccc1OC(C)(C)C(=O)O"
  Classification: "0 (no)"
- Molecule: "Cc1cc(C(=O)CCc2cc(-c3ccc(C(F)(F)F)cc3)nn2C(C)C)ccc1OC(C)(C)C(=O)O"
  Classification: "1 (yes)"
- Molecule: "Cc1ccc(-n2cc(CCC(=O)c3ccc(OC(C)(C)C(=O)O)c(C)c3)c(C(C)C)n2)nc1"
  Classification: "1 (yes)"
